- ASSAY_METHOD_TEXT: qHTS for Inhibitors of human tyrosyl-DNA phosphodiesterase 1 (TDP1): qHTS in cells in presence of CPT; further: nearly all actives have a fitted effect of over 55% in size
- MEASUREMENT_CONTEXT: chicken DT40 Tdp1-/-;hTDP1 cells + 20 nM CPT, ATP luminescence, 48 h; series mostly up to 46.2 µM
Hit rate of the full screen: of about 420,000 compounds, about 50,000 (12%) were called active. Roughly 26% stayed inconclusive and do not appear here. The call rests on the fitted dose curve; in most records, active means well fitted inhibition curve with a large enough effect; inconclusive means small, poorly fitted or top-dose-only effect; inactive means flat fitted curve, though single readings scatter. This is one part of a sample in which actives are shown more often than they occur.
Mark one answer only. Choices: Y (active), N (inactive)

The examples below pair each entry with its known result.
[[record]]
molecule = "Cc1ccc(-c2noc(CC(c3ccccc3)c3ccccc3)n2)cc1"
class = "N"

[[record]]
molecule = "CN(C)/C=C(/C(=O)c1ccccc1Cl)S(C)(=O)=O"
class = "N"

[[record]]
molecule = "CC(C)OCCCNC(=O)c1ccc(C2SCC(=O)N2Cc2ccco2)cc1 (stereo not drawn)"
class = "N"


// return assay outcome for `Cc1ccnc2nc(C(=O)OCC(=O)N(CC(C)C)CC(C)C)nn12`
N

// return assay outcome for `COc1ccc(-c2noc(CSc3ccc(C)cc3)n2)cc1`
N

// return assay outcome for `O=C(CSc1nc2ccccc2[nH]1)Nc1nc(-c2ccccc2)c(-c2ccccc2)o1`
N

// return assay outcome for COc1ccc(C(=O)NC(C)c2nccs2)cc1OC1CCN(C(C)C)CC1 (stereo not drawn)
N

// return assay outcome for `COc1ccc(-c2noc(CN(C)S(=O)(=O)c3ccc(C)cc3)n2)cc1`
Y

// return assay outcome for `CC(C)NC(=O)c1nn(-c2ccccc2F)nc1CO`
N

// return assay outcome for `COCCNC(=O)c1snc2ccc(Cl)cc12`
N

// return assay outcome for `Cc1ccc(OCCNC(=O)CNC(=O)c2ccc(C)c(C)c2)cc1`
N

// return assay outcome for CC(Oc1ccccc1)C(=O)N[C@@H]1C(=O)N2[C@@H]1SC(C)(C)[C@@H]2C(=O)O (stereo partly drawn)
N

// return assay outcome for `CCCCNC(=O)c1nc(C2CCN(S(=O)(=O)c3ccc(F)c(F)c3)CC2)oc1-c1cccc(C(F)(F)F)c1`
N

// return assay outcome for `CN(C)CCCn1c(SCc2ccc(Cl)cc2)nnc1-c1ccncc1`
N

// return assay outcome for `COc1ccc(-c2noc(CCC(=O)N(C)c3ccccc3C)n2)cc1`
N

// return assay outcome for `CSc1ccc(CN(C)CC(=O)NCc2ccc(F)cc2)cc1`
N

// return assay outcome for `O=C(CCNS(=O)(=O)c1ccc(Br)s1)NCc1ccccc1Cl`
N

// return assay outcome for `O=C(COC(=O)COc1cccc(F)c1)NCC1CCCCC1`
N

// return assay outcome for `CCOC(=O)c1c(NC(=O)CSc2nccc(=O)[nH]2)sc(C)c1C`
N

// return assay outcome for `CC1CCN(Cc2nc(-c3ccc(Cl)cc3)no2)CC1`
N

// return assay outcome for `COc1ccccc1Cc1nc(-c2ccc(C)cc2)no1`
N

// return assay outcome for `O=C(NCCCO)C(=O)Nc1c2c(nn1-c1ccccc1)CSC2`
N

// return assay outcome for `CCC(=O)Nc1ccc2c(c1)nc(CCN1CCN(C)CC1)n2C`
N

###

- ASSAY_METHOD_TEXT: qHTS for Inhibitors of human tyrosyl-DNA phosphodiesterase 1 (TDP1): qHTS in cells in presence of CPT; further: nearly all actives have a fitted effect of over 55% in size
- MEASUREMENT_CONTEXT: chicken DT40 Tdp1-/-;hTDP1 cells + 20 nM CPT, ATP luminescence, 48 h; series mostly up to 46.2 µM
The whole screen tested about 420,000 compounds, of which about 50,000 (12%) were called active. Not shown: some 26% with an inconclusive outcome. Calls come from the whole dose curve; as a rule, active = well fitted inhibition curve with a large enough effect; inconclusive = small, poorly fitted or top-dose-only effect; inactive = flat fitted curve, though single readings scatter. Many of the other results were omitted from the sample, so actives are more common in it than they were.
Mark one answer only. Choices: active, inactive

[[record]]
compound = "CO/N=C(\\C(=O)N[C@@H]1C(=O)N2C(C(=O)O)=C(C[N+]3(C)CCCC3)CS[C@H]12)c1csc(N)n1"
class = "inactive"

[[record]]
compound = "O=C(NCCCO)C(=O)Nc1c2c(nn1-c1ccc(F)cc1)CSC2"
class = "inactive"

[[record]]
compound = "CCCn1nc2cc(C(=O)NCc3ccccc3)ccc2c1OCC"
class = "inactive"

[[record]]
compound = "COC(=O)C1(C(=O)OC)C/C=C\\CN(S(=O)(=O)c2ccccc2[N+](=O)[O-])CCC1"
class = "inactive"

[[record]]
compound = "CCOC(=O)C(C)Oc1cccc2c(=O)n(CC(=O)N3CCc4ccccc43)ccc12 (stereo unspecified)"
class = "inactive"


// return assay outcome for `COc1ccc(NC(=O)CN2C(=O)CSC2=O)cc1`
inactive

// return assay outcome for CCC(C)c1ccc(NC(=S)NCc2ccccn2)cc1 (stereo unspecified)
inactive

// return assay outcome for O=C(Nc1ccc(-c2cscn2)cc1)C1CCCN(Cc2ccc(CO)o2)C1 (stereo unspecified)
inactive

// return assay outcome for Cc1ccc(N(C(=O)Cc2cccs2)C(C(=O)NCC2CCCO2)c2ccncc2)cc1 (stereo unspecified)
inactive

// return assay outcome for `Cc1cc(C(=O)Nc2nnc(C3CC3)s2)c(C)s1`
inactive

// return assay outcome for `Cn1cc[n+](C)c1COc1ccc(C=O)cc1`
inactive

// return assay outcome for `Cc1ccc2nc(Nc3ncc4c(n3)CC(C)(C)CC4=O)nc(C)c2c1`
inactive

// return assay outcome for `CCOC(=O)C1=C(NC(=S)NC(=O)c2ccccc2)c2ccccc2CC1(C)C`
inactive
